Exercise: state measured melting point for each of the molecules provided.

See these solved cases before continuing.
molecule	melting point
Nc1cccc2c1nc(C(F)F)n2-c1nc(N2CCOCC2)nc(N2CCOCC2)n1	214 to 216 °C (dec.)
CCOc1ccc2nc(C(F)F)n(-c3nc(N4CCOCC4)nc(N4CCOCC4)n3)c2c1	222 to 224 °C
CC1(C)CN(c2cc(N3CCOCC3)nc(-n3c(C(F)F)nc4c(O)cccc43)n2)CCO1	185 to 187 °C
COCC(=O)N1CCN(c2nc(N3CCOCC3)nc(-n3c(C(F)F)nc4ccccc43)n2)CC1	72 to 75 °C
CCOc1cccc2c1nc(C(F)F)n2-c1nc(N2CCOCC2)cc(N2CCOC(C)(C)C2)n1	114 to 116 °C

Look up melting point for the entries below, preserving their order.
1. C[C@@H]1OCCN(c2nc(N3CCOCC3)nc(-n3c(C(F)F)nc4ccc(N)cc43)n2)[C@@H]1C (relative stereo)
2. O=C1CN(c2nc(N3CCOCC3)nc(-n3c(C(F)F)nc4ccccc43)n2)CCN1
3. CC1(C)CN(c2nc(N3CCOCC3)nc(-n3c(C(F)F)nc4c(Cl)cc(N)cc43)n2)CCO1
4. COC(=O)N1CCN(c2nc(N3CCOCC3)nc(-n3c(C(F)F)nc4ccccc43)n2)CC1
5. Oc1ccc2c(nc(C(F)F)n2-c2nc(N3CCOCC3)nc(N3CCOCC3)n2)c1Cl
6. CC(=O)N1CCN(c2nc(N3CCOCC3)nc(-n3c(C(F)F)nc4ccccc43)n2)CC1

Result:
1: 220 to 222 °C (dec.); 2: 255 to 257 °C; 3: 238 °C (dec.); 4: 255 to 260 °C; 5: > 250 °C; 6: 223 °C
